target: Cav1.3 L-type Ca channels (Rattus norvegicus, UniProt P27732); construct: expressed in transfected cells; host or cells: HEK293; assay: FLIPR Fluo-8 calcium assay, Cav1.3 channel inhibition in HEK293 cells; assay type: cell-based; settings: IC50 (μM) CaV1.3, first library; FLIPR, HEK293; value (±SD)
Sequence (P27732 whole entry): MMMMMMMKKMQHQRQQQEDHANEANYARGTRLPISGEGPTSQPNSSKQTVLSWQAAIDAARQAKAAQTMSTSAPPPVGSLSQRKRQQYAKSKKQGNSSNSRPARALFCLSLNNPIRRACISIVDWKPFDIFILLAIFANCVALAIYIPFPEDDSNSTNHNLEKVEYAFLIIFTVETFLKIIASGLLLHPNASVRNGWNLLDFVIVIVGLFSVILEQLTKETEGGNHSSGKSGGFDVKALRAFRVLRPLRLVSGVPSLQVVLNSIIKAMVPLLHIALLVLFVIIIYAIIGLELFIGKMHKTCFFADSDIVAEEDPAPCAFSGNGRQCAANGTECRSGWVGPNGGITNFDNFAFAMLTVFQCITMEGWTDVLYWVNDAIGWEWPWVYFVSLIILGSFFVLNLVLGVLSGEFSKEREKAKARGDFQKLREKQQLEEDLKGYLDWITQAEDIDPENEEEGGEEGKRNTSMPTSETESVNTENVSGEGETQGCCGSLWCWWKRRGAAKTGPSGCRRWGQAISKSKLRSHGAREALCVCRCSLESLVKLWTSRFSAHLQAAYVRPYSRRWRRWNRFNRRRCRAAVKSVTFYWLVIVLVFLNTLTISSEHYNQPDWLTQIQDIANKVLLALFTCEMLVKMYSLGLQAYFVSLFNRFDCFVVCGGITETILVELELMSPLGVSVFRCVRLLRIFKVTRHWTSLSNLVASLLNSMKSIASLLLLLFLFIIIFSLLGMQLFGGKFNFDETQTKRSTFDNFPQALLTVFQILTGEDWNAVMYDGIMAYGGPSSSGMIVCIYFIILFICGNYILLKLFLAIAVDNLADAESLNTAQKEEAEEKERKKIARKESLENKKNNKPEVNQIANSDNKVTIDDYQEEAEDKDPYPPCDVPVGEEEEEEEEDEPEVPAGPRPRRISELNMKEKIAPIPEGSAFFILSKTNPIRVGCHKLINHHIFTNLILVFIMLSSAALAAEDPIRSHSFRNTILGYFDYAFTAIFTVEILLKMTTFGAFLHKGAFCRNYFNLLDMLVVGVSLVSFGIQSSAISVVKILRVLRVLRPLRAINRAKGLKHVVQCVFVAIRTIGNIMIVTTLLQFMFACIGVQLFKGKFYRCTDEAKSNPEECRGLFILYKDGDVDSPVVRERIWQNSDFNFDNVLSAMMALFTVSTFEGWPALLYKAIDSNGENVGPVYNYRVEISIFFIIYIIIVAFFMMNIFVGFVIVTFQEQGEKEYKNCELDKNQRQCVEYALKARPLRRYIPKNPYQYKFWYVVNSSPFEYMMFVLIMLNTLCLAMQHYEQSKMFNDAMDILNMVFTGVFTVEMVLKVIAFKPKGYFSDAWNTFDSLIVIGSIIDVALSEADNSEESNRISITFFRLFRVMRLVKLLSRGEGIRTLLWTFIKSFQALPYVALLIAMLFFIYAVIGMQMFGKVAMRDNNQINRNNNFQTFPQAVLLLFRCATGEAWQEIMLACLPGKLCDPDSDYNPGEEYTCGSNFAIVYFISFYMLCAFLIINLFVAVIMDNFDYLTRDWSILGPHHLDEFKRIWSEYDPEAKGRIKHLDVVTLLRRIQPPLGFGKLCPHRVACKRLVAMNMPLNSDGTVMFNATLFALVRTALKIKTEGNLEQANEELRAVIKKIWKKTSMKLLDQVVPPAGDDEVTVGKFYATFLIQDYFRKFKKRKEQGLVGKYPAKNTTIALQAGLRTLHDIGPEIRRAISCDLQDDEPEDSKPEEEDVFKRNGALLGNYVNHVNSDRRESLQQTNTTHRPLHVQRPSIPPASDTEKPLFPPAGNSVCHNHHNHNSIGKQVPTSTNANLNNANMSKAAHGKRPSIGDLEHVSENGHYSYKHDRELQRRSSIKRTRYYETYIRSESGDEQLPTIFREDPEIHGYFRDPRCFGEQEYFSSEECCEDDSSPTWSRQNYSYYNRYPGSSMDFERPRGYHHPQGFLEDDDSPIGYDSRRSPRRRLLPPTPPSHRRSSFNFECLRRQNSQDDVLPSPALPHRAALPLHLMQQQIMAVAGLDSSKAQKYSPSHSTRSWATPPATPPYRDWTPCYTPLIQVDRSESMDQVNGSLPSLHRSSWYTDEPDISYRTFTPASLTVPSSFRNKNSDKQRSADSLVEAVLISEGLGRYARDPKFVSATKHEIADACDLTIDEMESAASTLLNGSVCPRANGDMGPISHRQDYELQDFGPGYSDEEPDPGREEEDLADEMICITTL
Sequence (P54284 whole entry partner): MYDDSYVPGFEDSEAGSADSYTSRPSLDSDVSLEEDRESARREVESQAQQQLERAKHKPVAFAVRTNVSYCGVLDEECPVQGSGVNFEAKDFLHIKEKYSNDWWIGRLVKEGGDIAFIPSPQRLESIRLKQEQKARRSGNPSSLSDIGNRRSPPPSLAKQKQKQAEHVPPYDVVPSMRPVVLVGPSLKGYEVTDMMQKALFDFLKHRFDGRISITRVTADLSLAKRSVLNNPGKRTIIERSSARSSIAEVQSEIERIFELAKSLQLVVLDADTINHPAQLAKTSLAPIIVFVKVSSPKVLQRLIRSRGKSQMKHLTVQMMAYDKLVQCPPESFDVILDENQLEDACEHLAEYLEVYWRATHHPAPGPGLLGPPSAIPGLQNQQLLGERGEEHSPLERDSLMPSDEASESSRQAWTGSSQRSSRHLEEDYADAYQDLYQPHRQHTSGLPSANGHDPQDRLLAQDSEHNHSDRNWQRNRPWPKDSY
Sequence (P54289 25-956 partner limits assumed): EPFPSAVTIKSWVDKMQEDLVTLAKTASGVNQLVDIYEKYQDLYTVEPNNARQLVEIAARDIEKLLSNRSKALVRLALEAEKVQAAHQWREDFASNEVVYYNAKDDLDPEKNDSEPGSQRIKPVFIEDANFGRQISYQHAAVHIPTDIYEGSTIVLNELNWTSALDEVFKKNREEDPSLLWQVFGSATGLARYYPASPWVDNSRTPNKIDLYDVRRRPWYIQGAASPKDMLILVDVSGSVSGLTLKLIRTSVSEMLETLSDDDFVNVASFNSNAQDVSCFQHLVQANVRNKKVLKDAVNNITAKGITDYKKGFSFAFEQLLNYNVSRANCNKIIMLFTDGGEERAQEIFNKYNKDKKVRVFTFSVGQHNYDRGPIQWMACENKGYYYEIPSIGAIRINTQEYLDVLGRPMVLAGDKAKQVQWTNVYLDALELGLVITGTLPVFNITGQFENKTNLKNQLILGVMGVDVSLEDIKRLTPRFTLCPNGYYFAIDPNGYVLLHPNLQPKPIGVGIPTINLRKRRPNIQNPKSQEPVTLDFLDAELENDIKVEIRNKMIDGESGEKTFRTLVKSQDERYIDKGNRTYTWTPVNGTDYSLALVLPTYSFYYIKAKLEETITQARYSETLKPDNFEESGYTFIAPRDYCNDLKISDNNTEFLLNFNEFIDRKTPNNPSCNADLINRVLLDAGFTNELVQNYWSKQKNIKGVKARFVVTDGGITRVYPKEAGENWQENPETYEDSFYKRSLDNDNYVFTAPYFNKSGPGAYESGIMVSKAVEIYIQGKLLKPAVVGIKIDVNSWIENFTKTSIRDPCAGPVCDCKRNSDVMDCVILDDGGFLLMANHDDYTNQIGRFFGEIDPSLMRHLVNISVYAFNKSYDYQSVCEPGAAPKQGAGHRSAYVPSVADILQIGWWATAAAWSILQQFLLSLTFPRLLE
Sequence (P54289 957-1103 partner limits assumed): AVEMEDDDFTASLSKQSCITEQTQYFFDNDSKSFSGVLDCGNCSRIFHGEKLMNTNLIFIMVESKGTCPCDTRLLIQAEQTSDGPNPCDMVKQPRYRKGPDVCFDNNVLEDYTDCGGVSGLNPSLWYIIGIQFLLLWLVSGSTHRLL
log10 of IC50 listing for selected compounds.
Scale: log10; quantity: IC50; unit before log: µM

Please review the entries below; each comes with its answer.
O=C1CC(=O)N(Cc2cccc([N+](=O)[O-])c2)C(=O)N1CCCc1ccccc1 :: 1.22
O=C1CC(=O)N(CCc2ccc([N+](=O)[O-])cc2)C(=O)N1CCCCc1ccccc1 :: 0.54
O=C1CC(=O)N(CCc2ccc(Cl)c(Cl)c2)C(=O)N1CCc1ccc(Cl)cc1 :: 0.28
COC(=O)[C@H](C)N1C(=O)CC(=O)N(CCc2ccc(Cl)cc2)C1=O :: 1.89
O=C1CC(=O)N(C2CCCCC2)C(=O)N1CCc1cccc(Cl)c1 :: 0.15

For the compound shown here, O=C1CC(=O)N(C2CCCC2)C(=O)N1CCc1ccc(Cl)cc1 , give the reported log10 of IC50.
0.15

For the compound shown here, O=C1CC(=O)N(CCc2ccc(Cl)cc2)C(=O)N1CCCCc1ccccc1 , give the reported log10 of IC50.
-0.05

For the compound shown here, COC(=O)CN1C(=O)CC(=O)N(CCc2ccc(Cl)cc2)C1=O , give the reported log10 of IC50.
2.03

For the compound shown here, O=C1CC(=O)N(CCc2cccc(F)c2)C(=O)N1CCCCc1ccccc1 , give the reported log10 of IC50.
0.20
